- System: SEM cells
- test_summary: AUC of viability dose-response curve (% viability x log10 dose units); higher = less sensitive
- condition: RPMI 5 mM glucose + 10% FBS; 48 h
Consider the following molecules and their measured AUC of viability dose-response curve readings.
measurement_type: AUC of viability dose-response curve

[[record]]
molecule = "COc1ccc2c(c1OC)C(=O)O[C@H]2[C@H]1c2c(cc3c(c2OC)OCO3)CCN1C"
measurement_type = "AUC of viability dose-response curve"
recorded_measurement = 233

[[record]]
molecule = "CCOC(=O)/C=C/[C@H](C[C@@H]1CCNC1=O)NC(=O)[C@@H](CC(=O)[C@@H](NC(=O)c1cc(C)on1)C(C)C)Cc1ccc(F)cc1"
measurement_type = "AUC of viability dose-response curve"
recorded_measurement = 463

[[record]]
molecule = "CCOC1=CC=CC=C1N\\2C(=O)C3=C(C=CC=C3)\\N=C2C(C)N4CCN(CC4)C(=O)COC5=CC=C(Cl)C=C5 (centres undefined)"
measurement_type = "AUC of viability dose-response curve"
recorded_measurement = 280

[[record]]
molecule = "NC(=O)OCC(COC(N)=O)c1ccccc1"
measurement_type = "AUC of viability dose-response curve"
recorded_measurement = 448


The origin of these recorded values is the supplement of paper PMC11451515.
